Provenance of the data: paper PMC8698454

Tested on: Escherichia coli ATCC 25922
Assay type: cell-based
Conditions: Table S3; technical replicate 3, biological replicate BR3
Where a SMILES comes first, the peptide text is derived from it. [ ]: non-standard residue; d: D form. Bip = N[C@@H](Cc1ccc(-c2ccccc2)cc1)C(=O)O; Lys(N3) = [N-]=[N+]=NCCCC[C@H](N)C(=O)O
Recorded MIC E. coli ATCC 25922 by entry
Give your result in µg/mL as a bare value.

Answered examples (3):
[
  {
    "compound": "[N-]=[N+]=NCCCC[C@@H]1NC(=O)[C@H](Cc2ccccc2)NC(=O)[C@H](CCCNC(=N)N)NC(=O)[C@H](Cc2ccc(-c3ccccc3)cc2)NC(=O)[C@H](Cc2ccc(-c3ccccc3)cc2)NC(=O)[C@H](CCCNC(=N)N)NC1=O [2d] (cyclo(R[Bip][Bip]RF[Lys(N3)]))",
    "property": "MIC E. coli ATCC 25922",
    "endpoint-unit": "µg/mL",
    "value-measured": 32
  },
  {
    "compound": "[N-]=[N+]=NCCCC[C@H](NC(=O)[C@H](Cc1ccccc1)NC(=O)[C@H](CCCNC(=N)N)NC(=O)[C@H](Cc1ccc(-c2ccccc2)cc1)NC(=O)[C@H](Cc1ccc(-c2ccccc2)cc1)NC(=O)[C@@H](N)CCCNC(=N)N)C(N)=O [2c] (H-R[Bip][Bip]RF[Lys(N3)]-NH2)",
    "property": "MIC E. coli ATCC 25922",
    "endpoint-unit": "µg/mL",
    "value-measured": 8
  },
  {
    "compound": "[N-]=[N+]=NCCCC[C@@H]1NC(=O)[C@H](Cc2ccccc2)NC(=O)[C@H](CCCNC(=N)N)NC(=O)[C@H](Cc2c[nH]c3ccccc23)NC(=O)[C@H](Cc2c[nH]c3ccccc23)NC(=O)[C@H](CCCNC(=N)N)NC1=O [1d] (cyclo(RWWRF[Lys(N3)]))",
    "property": "MIC E. coli ATCC 25922",
    "endpoint-unit": "µg/mL",
    "value-measured": 64
  }
]

Now for the compound whose MIC E. coli ATCC 25922 we want.
Determine from records and report MIC E. coli ATCC 25922 for [N-]=[N+]=NCCCC[C@H](NC(=O)[C@H](Cc1ccccc1)NC(=O)[C@H](CCCNC(=N)N)NC(=O)[C@H](Cc1c[nH]c2ccccc12)NC(=O)[C@H](Cc1c[nH]c2ccccc12)NC(=O)[C@@H](N)CCCNC(=N)N)C(N)=O [1c] (H-RWWRF[Lys(N3)]-NH2)
32

----------
Tested on: Staphylococcus aureus ATCC 9144
Type: cell-based
Conditions: Table S3; technical replicate 3, biological replicate BR1
Where a SMILES comes first, the peptide text is derived from it. [ ]: non-standard residue; d: D form. Bip = N[C@@H](Cc1ccc(-c2ccccc2)cc1)C(=O)O; Lys(N3) = [N-]=[N+]=NCCCC[C@H](N)C(=O)O
The following compounds are listed with their measured MIC S. aureus ATCC 9144 values.
Reply numerically in µg/mL, unit not repeated.

Report MIC S. aureus ATCC 9144 for [N-]=[N+]=NCCCC[C@@H]1NC(=O)[C@H](Cc2ccccc2)NC(=O)[C@H](CCCNC(=N)N)NC(=O)[C@H](Cc2ccc(-c3ccccc3)cc2)NC(=O)[C@H](Cc2ccc(-c3ccccc3)cc2)NC(=O)[C@H](CCCNC(=N)N)NC1=O [2d] (cyclo(R[Bip][Bip]RF[Lys(N3)]))
4

Give reported MIC S. aureus ATCC 9144 value for [N-]=[N+]=NCCCC[C@H](NC(=O)[C@H](Cc1ccccc1)NC(=O)[C@H](CCCNC(=N)N)NC(=O)[C@H](Cc1c[nH]c2ccccc12)NC(=O)[C@H](Cc1c[nH]c2ccccc12)NC(=O)[C@@H](N)CCCNC(=N)N)C(N)=O [1c] (H-RWWRF[Lys(N3)]-NH2)
32

Give the measured MIC S. aureus ATCC 9144 for [N-]=[N+]=NCCCC[C@H](NC(=O)[C@H](Cc1ccccc1)NC(=O)[C@H](CCCNC(=N)N)NC(=O)[C@H](Cc1ccc(-c2ccccc2)cc1)NC(=O)[C@H](Cc1ccc(-c2ccccc2)cc1)NC(=O)[C@@H](N)CCCNC(=N)N)C(N)=O [2c] (H-R[Bip][Bip]RF[Lys(N3)]-NH2)
8

Note down MIC S. aureus ATCC 9144 recorded for [N-]=[N+]=NCCCC[C@@H]1NC(=O)[C@H](Cc2ccccc2)NC(=O)[C@H](CCCNC(=N)N)NC(=O)[C@H](Cc2c[nH]c3ccccc23)NC(=O)[C@H](Cc2c[nH]c3ccccc23)NC(=O)[C@H](CCCNC(=N)N)NC1=O [1d] (cyclo(RWWRF[Lys(N3)]))
8
